These entries and their values trace back to ChEMBL document CHEMBL1124462.

For each record, write down the corresponding log10 K app.
Tested on: Nucleic Acid
Experiment: Association constant against the polynucleotide poly (dA-dT).
Format: nucleic-acid assay
Values are log10 of K app in M⁻¹.

What measured log10 K app goes with CC(NC(=O)c1cc(NC(=O)c2cc([N+](=O)[O-])cn2C)cn1C)C(=O)OC(C)(C)C (stereo unspecified) ?
2.30

Another compound to look at: "Cn1cc(NC(=O)c2cc(NC(=O)c3cc(NC=O)cn3C)cn2C)cc1C(=O)NCCC(=N)N"
7.93

Another compound to look at: CC(NC(=O)c1cc(NC(=O)c2cc(NC(=O)CNC(=N)N)cn2C)cn1C)C(=O)OC(C)(C)C (stereo unspecified)
3.94

Another compound to look at: CC(NC(=O)C(C)NC(=O)c1cc(NC(=O)c2cc(NC(=O)CNC(=N)N)cn2C)cn1C)C(=O)O (stereo unspecified)
3.08

Another compound to look at: CC(NC(=O)c1cc(NC(=O)c2cc(NC(=O)CNC(=N)N)cn2C)cn1C)C(=O)NC(C)C(=O)OC(C)(C)C (stereo unspecified)
3.64

Another compound to look at: "C[C@H](NC(=O)c1cc(NC(=O)c2cc(NC(=O)CNC(=N)N)cn2C)cn1C)C(=O)N[C@@H](C)C(=O)N[C@@H](C)C(=O)OC(C)(C)C"
4.30

Another compound to look at: "Cn1cc(NC(=O)c2cc([N+](=O)[O-])cn2C)cc1C(=O)NCCCNCCCCN"
5.64
